Recorded EC50, cAMP (AlphaScreen), CHO cells, Experiment 3 for the following binders
Target: calcitonin receptor of CHO cells
Assay: cell-based or functional assay
Ends that are not written are not given here.
parameter: EC50, cAMP (AlphaScreen), CHO cells, Experiment 3 (nM)

[
  {
    "binder": "KCNTATCATQRLANFLVRSSNNLGPVLPPTNVGSNTY (peptide, UniProt P12969 38-74, looked up) [rat amylin]",
    "unit_label": "nM",
    "endpoint_value": 19.6
  },
  {
    "binder": "CGNLSTCMLGTYTQDFNKFHTFPQTAIGVGAP-NH2 (ends and bridges not checked) [Human Calcitonin]",
    "unit_label": "nM",
    "endpoint_value": 0.075
  },
  {
    "binder": "Human Adrenomedullin (ends and bridges not checked) peptide: YRQSMNNFQGLRSFGCRFGTCTVQKLAHQIYQFTDKDKDNVAPRSKISPQGY-NH2",
    "unit_label": "nM",
    "endpoint_value": 622
  },
  {
    "binder": "TQAQLLRVGCVLGTCQVQNLSHRLWQLMGPAGRQDSAPVDPSSPHSY-NH2 (ends and bridges not checked, also called Amylin Family Polypeptide-6; intermedin) [Human AFP-6 [1-47]]",
    "unit_label": "nM",
    "endpoint_value": 7
  }
]
